// data source = patent US20200262913A1

- tested_system: T1, recombinant human IL-31 (hIL-31, BHK produced, A1277F, zcytor17lig CEE) (human, UniProt Q6EBC2 24-164)
- T1 construct: also called recombinant hIL-31
- T1 sequence: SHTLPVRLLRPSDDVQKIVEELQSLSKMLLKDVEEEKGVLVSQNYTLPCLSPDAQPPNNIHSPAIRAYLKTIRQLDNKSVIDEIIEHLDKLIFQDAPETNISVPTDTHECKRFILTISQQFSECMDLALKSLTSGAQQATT
- test_summary: SPR (Biacore), mAb amine-coupled to CM5 chip, hIL-31 injected
value_kind: koff (s⁻¹)
The reply should contain only the number, in s⁻¹.

Illustrative cases are given below, each with its answer.
humanized 292.12.3.1 construct clone 7 (12VH1-gly + fback) (antibody, human IgG4, V domains shown, also called 07) VH: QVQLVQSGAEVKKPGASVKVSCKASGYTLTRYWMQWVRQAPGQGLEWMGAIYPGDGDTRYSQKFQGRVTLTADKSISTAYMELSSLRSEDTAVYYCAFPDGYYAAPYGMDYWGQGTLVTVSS VL: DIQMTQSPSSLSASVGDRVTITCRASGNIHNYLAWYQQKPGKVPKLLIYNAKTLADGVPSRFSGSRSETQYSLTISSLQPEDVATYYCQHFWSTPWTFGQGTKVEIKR; 5.7e-05
humanized 292.12.3.1 construct clone 36 (12VH1(germ)-gly + HC(F29L, T73K, R94F) + LC(F71Y)) (antibody, human IgG4, V domains shown) VH: QVQLVQSGAEVKKPGASVKVSCKASGYTLTRYWMQWVRQAPGQGLEWMGAIYPGDGDTRYSQKFQGRVTMTRDKSTSTVYMELSSLRSEDTAVYYCAFPDGYYAAPYGMDYWGQGTLVTVSS VL: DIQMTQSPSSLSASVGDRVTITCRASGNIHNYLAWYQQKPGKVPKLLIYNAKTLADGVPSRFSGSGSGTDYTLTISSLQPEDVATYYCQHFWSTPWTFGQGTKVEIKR; 0.000108

Let us move to another entry and its koff.
// sample humanized 292.12.3.1 construct clone 35 (12VH1-gly + HC(F29L, R94F)) (antibody, human IgG4, V domains shown) VH: QVQLVQSGAEVKKPGASVKVSCKASGYTLTRYWMQWVRQAPGQGLEWMGAIYPGDGDTRYSQKFQGRVTMTRDTSISTVYMELSSLRSEDTAVYYCAFPDGYYAAPYGMDYWGQGTLVTVSS VL: DIQMTQSPSSLSASVGDRVTITCRASGNIHNYLAWYQQKPGKVPKLLIYNAKTLADGVPSRFSGSGSGTDFTLTISSLQPEDVATYYCQHFWSTPWTFGQGTKVEIKR , its koff was 0.0001
